Assay: Toxicity in New Zealand white rabbit erythrocytes assessed as hemolytic activity after 60 mins
Type: cell-based, Oryctolagus cuniculus
Conditions: erythrocyte, 1 h
Bridge positions count the residues as written; N and C are the ends. Peptide text beside a SMILES is read from it. I, II: the chains in the order shown. * marks the point of attachment. Decanoyl = CCCCCCCCCC(=O)*; Hexanoyl = CCCCCC(=O)*
Listed below: HC10 values for each entry.

**Q:** State the recorded HC10 for this entry: CCCCCCCCCC(=O)N[C@@H](CCCNC(=N)N)C(=O)NCC(=O)N[C@@H](CCCNC(=N)N)C(=O)N[C@@H](CCCCN)C(=O)N[C@H](C(=O)N[C@H](C(=O)N[C@@H](CCCNC(=N)N)C(=O)N[C@@H](CCCNC(=N)N)C(=O)N[C@@H](CCCCN)C(=O)N[C@@H](CCCCN)C(=O)O)C(C)C)C(C)C (Decanoyl-RGRKVVRRKK-OH)
**A:** > 10000 µg/mL

**Q:** Entry under review: N=C(N)NCCC[C@H](NC(=O)CNC(=O)[C@@H](N)CCCNC(=N)N)C(=O)N[C@@H](CCCCN)C(=O)NCC(=O)NCC(=O)N[C@@H](CCCNC(=N)N)C(=O)N[C@@H](CCCNC(=N)N)C(=O)N[C@@H](CCCCN)C(=O)N[C@@H](CCCCN)C(=O)O (H-RGRKGGRRKK-OH) . Reported HC10?
**A:** > 10000 µg/mL

**Q:** HC10 for CCCCCC(=O)N[C@@H](CCCNC(=N)N)C(=O)NCC(=O)N[C@@H](CCCNC(=N)N)C(=O)N[C@@H](CCCCN)C(=O)NCC(=O)NCC(=O)N[C@@H](CCCNC(=N)N)C(=O)N[C@@H](CCCNC(=N)N)C(=O)NCCCC[C@H](NC(=O)[C@H](CCCNC(=N)N)NC(=O)[C@H](CCCNC(=N)N)NC(=O)CNC(=O)CNC(=O)[C@H](CCCCN)NC(=O)[C@H](CCCNC(=N)N)NC(=O)CNC(=O)[C@H](CCCNC(=N)N)NC(=O)CCCCC)C(=O)N[C@@H](CCCCN)C(=O)O (I: Hexanoyl-RGRKGGRRKK-OH / II: Hexanoyl-RGRKGGRR; amide I:9-II:C) ?
**A:** > 10000 µg/mL

---

Test system: Escherichia coli
Assay: Antibacterial activity against Escherichia coli ATCC 25922 after 24 hrs by broth microdilution method
Assay type: functional
Conditions: ATCC 25922, 24 h
Bridge positions count the residues as written; N and C are the ends. Peptide text beside a SMILES is read from it. I, II: the chains in the order shown. * marks the point of attachment. Lauroyl = CCCCCCCCCCCC(=O)*; Octanoyl = CCCCCCCC(=O)*; Hexanoyl = CCCCCC(=O)*; Butyryl = CCCC(=O)*
# MIC values compiled below
Reply numerically in µM, unit not repeated.

Take a look at these entries with their results.
{"columns": ["COMPOUND", "TESTED TARGET", "SCALE UNIT", "MIC"],
 "data": [
  ["CCCCCCCC(=O)N[C@@H](CCCNC(=N)N)C(=O)NCC(=O)N[C@@H](CCCNC(=N)N)C(=O)N[C@@H](CCCCN)C(=O)N[C@H](C(=O)N[C@H](C(=O)N[C@@H](CCCNC(=N)N)C(=O)N[C@@H](CCCNC(=N)N)C(=O)N[C@@H](CCCCN)C(=O)N[C@@H](CCCCN)C(=O)O)C(C)C)C(C)C (Octanoyl-RGRKVVRRKK-OH)", "Escherichia coli", "µM", 6],
  ["CC(=O)N[C@@H](CCCNC(=N)N)C(=O)NCC(=O)N[C@@H](CCCNC(=N)N)C(=O)N[C@@H](CCCCN)C(=O)NCC(=O)NCC(=O)N[C@@H](CCCNC(=N)N)C(=O)N[C@@H](CCCNC(=N)N)C(=O)NCCCC[C@H](NC(=O)[C@H](CCCNC(=N)N)NC(=O)[C@H](CCCNC(=N)N)NC(=O)CNC(=O)CNC(=O)[C@H](CCCCN)NC(=O)[C@H](CCCNC(=N)N)NC(=O)CNC(=O)[C@H](CCCNC(=N)N)NC(C)=O)C(=O)N[C@@H](CCCCN)C(=O)O (I: Ac-RGRKGGRRKK-OH / II: Ac-RGRKGGRR; amide I:9-II:C)", "Escherichia coli", "µM", 1.5],
  ["CCCC(=O)N[C@@H](CCCNC(=N)N)C(=O)NCC(=O)N[C@@H](CCCNC(=N)N)C(=O)N[C@@H](CCCCN)C(=O)NCC(=O)NCC(=O)N[C@@H](CCCNC(=N)N)C(=O)N[C@@H](CCCNC(=N)N)C(=O)N[C@@H](CCCCN)C(=O)N[C@@H](CCCCN)C(=O)O (Butyryl-RGRKGGRRKK-OH)", "Escherichia coli", "µM", 40],
  ["CCCCCCCCCCCC(=O)N[C@@H](CCCNC(=N)N)C(=O)NCC(=O)N[C@@H](CCCNC(=N)N)C(=O)N[C@@H](CCCCN)C(=O)N[C@H](C(=O)N[C@H](C(=O)N[C@@H](CCCNC(=N)N)C(=O)N[C@@H](CCCNC(=N)N)C(=O)N[C@@H](CCCCN)C(=O)N[C@@H](CCCCN)C(=O)O)C(C)C)C(C)C (Lauroyl-RGRKVVRRKK-OH)", "Escherichia coli", "µM", 6]
]}

Please look at the following compound next.
**Q:** Data request, read-out MIC, for CCCCCC(=O)N[C@@H](CCCNC(=N)N)C(=O)NCC(=O)N[C@@H](CCCNC(=N)N)C(=O)N[C@@H](CCCCN)C(=O)NCC(=O)NCC(=O)N[C@@H](CCCNC(=N)N)C(=O)N[C@@H](CCCNC(=N)N)C(=O)NCCCC[C@H](NC(=O)[C@H](CCCNC(=N)N)NC(=O)[C@H](CCCNC(=N)N)NC(=O)CNC(=O)CNC(=O)[C@H](CCCCN)NC(=O)[C@H](CCCNC(=N)N)NC(=O)CNC(=O)[C@H](CCCNC(=N)N)NC(=O)CCCCC)C(=O)N[C@@H](CCCCN)C(=O)O (I: Hexanoyl-RGRKGGRRKK-OH / II: Hexanoyl-RGRKGGRR; amide I:9-II:C)
**A:** 3
